The measurements presented in this section are drawn from patent US20190389957A1.

Measured relative KD (KD divided by KD of 9A7) accompanies every entry in the list below.
# target-of-assay: T1, IL-11Rα as used in the Biacore kinetics of Example 14 (UniProt Q14626 23-363, limits assumed)
# T1 sequence (looked up): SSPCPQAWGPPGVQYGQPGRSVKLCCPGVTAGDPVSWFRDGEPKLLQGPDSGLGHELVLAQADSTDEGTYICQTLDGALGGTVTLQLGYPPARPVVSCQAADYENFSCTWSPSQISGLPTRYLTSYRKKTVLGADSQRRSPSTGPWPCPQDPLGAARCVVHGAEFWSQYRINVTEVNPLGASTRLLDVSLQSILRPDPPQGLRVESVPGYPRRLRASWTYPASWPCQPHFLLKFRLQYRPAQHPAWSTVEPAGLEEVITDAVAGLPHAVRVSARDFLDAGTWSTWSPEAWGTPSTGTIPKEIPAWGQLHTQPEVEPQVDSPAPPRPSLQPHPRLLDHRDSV
# experiment-summary: SPR (Biacore T200), multi-cycle kinetics, 25 C, HBS-P+ pH 7.4 with 0.1% BSA

Please review the entries below; each comes with its answer.
>  <binder>
Humanised BSO-9A7 variant VH3/VL2 (antibody, V domains shown, T0003 heads the columns 'Heavy chain' and 'Light chain', but the entries are variable domains) VH: QVQLVQSGAEVKKPGASVKVSCKASGYTFTNYWMHWLRQRPGQGLEWIGNIGPSDSKTHYNQKFKDRATLTVDKSTSTAYMELSSLRSEDTAVYYCARGDYVLFTYWGQGTLVTVSS VL: DIVLTQSPATLSLSPGERATLSCRASQSISNNLHWYQQKSGQAPRLLIKYASQSISGIPARFSGSGSGTDFTLTISSLETEDFAVYFCQQSYSWPLTFGQGTKLEIK

>  <relative KD (KD divided by KD of 9A7)>
0.85 ratio to 9A7

$$$$
>  <binder>
Humanised BSO-9A7 variant VH4/VL2 (antibody, V domains shown, Variable domains only) VH: QVQLVQSGAEVKKPGASVKVSCKASGYTFTNYWMHWLRQRPGQGLEWIGNIGPSDSKTHYNQKFKDRVTMTVDKSTSTAYMELSSLRSEDTAVYYCARGDYVLFTYWGQGTLVTVSS VL: DIVLTQSPATLSLSPGERATLSCRASQSISNNLHWYQQKSGQAPRLLIKYASQSISGIPARFSGSGSGTDFTLTISSLETEDFAVYFCQQSYSWPLTFGQGTKLEIK

>  <relative KD (KD divided by KD of 9A7)>
1.32 ratio to 9A7

$$$$
>  <binder>
Humanised BSO-9A7 variant VH4/VL4 (antibody, V domains shown, Variable domains only; also called printed once as VH4/VH4) VH: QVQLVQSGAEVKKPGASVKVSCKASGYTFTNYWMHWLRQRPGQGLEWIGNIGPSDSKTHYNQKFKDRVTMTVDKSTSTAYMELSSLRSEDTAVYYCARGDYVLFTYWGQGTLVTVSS VL: DIVLTQSPATLSLSPGERATLSCRASQSISNNLHWYQQKPGQAPRLLIKYASQSISGIPARFSGSGSGTDFTLTISSLEPEDFAVYYCQQSYSWPLTFGQGTKLEIK

>  <relative KD (KD divided by KD of 9A7)>
1.29 ratio to 9A7

$$$$

Please look up its relative KD (KD divided by KD of 9A7): Humanised BSO-9A7 variant VH3/VL4 (antibody, V domains shown, Variable domains only) VH: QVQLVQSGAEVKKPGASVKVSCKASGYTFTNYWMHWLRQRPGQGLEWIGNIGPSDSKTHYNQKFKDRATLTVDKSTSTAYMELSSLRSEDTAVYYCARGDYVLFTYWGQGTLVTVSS VL: DIVLTQSPATLSLSPGERATLSCRASQSISNNLHWYQQKPGQAPRLLIKYASQSISGIPARFSGSGSGTDFTLTISSLEPEDFAVYYCQQSYSWPLTFGQGTKLEIK
0.86 ratio to 9A7
